Here, each record is paired with measured Internalization EC50 (nM), MDA-MB-468-ROR1 cells, pH-dependent endocytosis reagent, FACS data.
Molecular target: human ROR1 on stably transfected cells (NCI-H1993-ROR1, MDA-MB-468-ROR1, NCI-H1975-ROR1, 293T-ROR1-NF-kB) (human, UniProt Q01973 30-937)
Sequence (Q01973 30-937 limits assumed): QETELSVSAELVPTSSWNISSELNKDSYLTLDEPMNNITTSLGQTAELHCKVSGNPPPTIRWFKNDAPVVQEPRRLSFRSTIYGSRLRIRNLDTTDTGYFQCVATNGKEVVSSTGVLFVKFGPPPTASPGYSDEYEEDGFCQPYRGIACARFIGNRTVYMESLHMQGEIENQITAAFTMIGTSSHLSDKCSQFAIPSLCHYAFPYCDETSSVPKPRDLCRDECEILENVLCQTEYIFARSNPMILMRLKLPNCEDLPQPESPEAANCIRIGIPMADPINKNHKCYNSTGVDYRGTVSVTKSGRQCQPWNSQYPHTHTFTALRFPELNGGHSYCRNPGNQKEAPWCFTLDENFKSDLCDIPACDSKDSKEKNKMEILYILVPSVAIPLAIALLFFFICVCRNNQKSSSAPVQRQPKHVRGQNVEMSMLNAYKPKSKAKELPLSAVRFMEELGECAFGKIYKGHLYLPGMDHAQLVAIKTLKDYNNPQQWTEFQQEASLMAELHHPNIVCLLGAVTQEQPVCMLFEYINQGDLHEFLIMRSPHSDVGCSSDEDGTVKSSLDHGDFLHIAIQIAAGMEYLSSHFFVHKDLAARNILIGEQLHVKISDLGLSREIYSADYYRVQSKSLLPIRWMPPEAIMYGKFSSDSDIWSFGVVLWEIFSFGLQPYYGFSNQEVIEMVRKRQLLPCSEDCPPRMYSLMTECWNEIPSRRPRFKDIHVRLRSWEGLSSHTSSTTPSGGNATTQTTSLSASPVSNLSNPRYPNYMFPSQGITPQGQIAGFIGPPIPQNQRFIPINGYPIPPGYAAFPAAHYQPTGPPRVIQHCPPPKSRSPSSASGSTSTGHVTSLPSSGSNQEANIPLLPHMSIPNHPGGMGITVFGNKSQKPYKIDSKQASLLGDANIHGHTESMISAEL
Assay: cell-based or functional assay
measure name: Internalization EC50 (nM), MDA-MB-468-ROR1 cells, pH-dependent endocytosis reagent, FACS

- hz135A2B10-1.1 (antibody, human IgG1, kappa, V domains shown, Humanized, human IgG1/kappa) VH: QVQLVESGGGLVQPGGSLRLSCAASGFAFSTYGMAWVRQAPGKGLEWVASIHKGGFSTYYPDNVKGRFTISRDNAKNSLYLQMNSLRAEDTAVYYCARHDWDGAMDYWGQGTLVTVSS VL: DIQMTQSPSSLSASVGDRVTITCKASQDINSYLNWYQQKPGKAPKTLIYRANRLVDGVPSRFSGSGSGQDYTLTISSLQPEDFATYYCLQFDEFPYTFGQGTKVEIKR: 1.39
- hz29H5D8-3.2 (antibody, human IgG1, kappa, V domains shown, Humanized, human IgG1/kappa) VH: QVQLVQSGAEVKKPGSSVKVSCKASGYTFTNYGISWVRQAPGQGLEWMGEIYPRSVNTYYSAKFKGRVTITADKSTSTAYMELSSLRSEDTAVYYCARHYYGSSLDYWGQGTLVTVSS VL: DIQMTQSPSSLSASVGDRVTITCITSSDIEDDMNWYQQKPGKAPKLLISEGNSLRPGVPSRFSSSGYGTDFTFTISSLQPEDIATYYCLQSDNIFTFGQGTKVEIKR: 0.92
- hz137G11D10-2.1 (antibody, human IgG1, kappa, V domains shown, Humanized, human IgG1/kappa) VH: QVQLQESGPGLVKPSQTLSLTCTVSGYSITSDYAWNWIRQHPGKGLEWIGYITYSASTSYNPSLKSRVTISRDTSKNQFSLKLSSVTAADTAVYYCARGAGTYYFDYWGQGTLVTVSS VL: DIQMTQSPSSLSASVGDRVTITCITSTDIDEDMNWYQQKPGKAPKLLIYEDNSLRPGVPSRFSGSGYGTDFTLTISSLQPEDFATYYCLQTNNLPLTFGQGTKVEIKR: 1.44
- UC-961 (antibody, V domains shown) VH: QVQLQESGPGLVKPSQTLSLTCTVSGYAFTAYNIHWVRQAPGQGLEWMGSFDPYDGGSSYNQKFKDRLTISKDTSKNQVVLTMTNMDPVDTATYYCARGWYYFDYWGHGTLVTVSS VL: DIVMTQTPLSLPVTPGEPASISCRASKSISKYLAWYQQKPGQAPRLLIYSGSTLQSGIPPRFSGSGYGTDFTLTINNIESEDAAYYFCQQHDESPYTFGEGTKVEIK: 2.15
